Numbers sourced from patent US10544147B2.

# ASSAYED_SYSTEM: PI3Kdelta (Homo sapiens (Human), UniProt O00329)
# Sequence (O00329 whole entry, canonical isoform): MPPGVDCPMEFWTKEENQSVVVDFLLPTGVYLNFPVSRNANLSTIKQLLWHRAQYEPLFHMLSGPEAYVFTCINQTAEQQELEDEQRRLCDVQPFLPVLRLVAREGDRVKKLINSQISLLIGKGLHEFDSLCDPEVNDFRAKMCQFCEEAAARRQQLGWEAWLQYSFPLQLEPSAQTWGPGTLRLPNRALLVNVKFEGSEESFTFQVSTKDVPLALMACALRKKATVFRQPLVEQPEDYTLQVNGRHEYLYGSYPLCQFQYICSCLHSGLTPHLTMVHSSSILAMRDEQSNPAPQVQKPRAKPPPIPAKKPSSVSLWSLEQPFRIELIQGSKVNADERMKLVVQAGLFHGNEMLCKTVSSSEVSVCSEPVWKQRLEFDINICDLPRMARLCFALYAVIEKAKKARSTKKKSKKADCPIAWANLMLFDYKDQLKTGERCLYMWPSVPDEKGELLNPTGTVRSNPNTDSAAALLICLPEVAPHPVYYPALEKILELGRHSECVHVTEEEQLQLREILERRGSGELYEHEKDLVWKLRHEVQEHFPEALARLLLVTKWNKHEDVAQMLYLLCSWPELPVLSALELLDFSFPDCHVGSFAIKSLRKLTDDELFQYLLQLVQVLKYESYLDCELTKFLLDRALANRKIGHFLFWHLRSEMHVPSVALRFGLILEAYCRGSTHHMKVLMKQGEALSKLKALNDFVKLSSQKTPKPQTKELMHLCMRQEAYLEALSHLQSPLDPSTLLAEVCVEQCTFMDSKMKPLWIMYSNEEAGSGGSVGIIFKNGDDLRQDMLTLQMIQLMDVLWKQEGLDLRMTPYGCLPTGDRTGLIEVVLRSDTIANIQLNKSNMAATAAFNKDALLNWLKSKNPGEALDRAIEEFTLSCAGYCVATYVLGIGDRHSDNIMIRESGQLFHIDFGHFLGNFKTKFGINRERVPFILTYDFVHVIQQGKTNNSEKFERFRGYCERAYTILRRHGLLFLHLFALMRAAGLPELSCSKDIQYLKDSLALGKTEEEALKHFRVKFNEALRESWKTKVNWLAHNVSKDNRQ
# Sequence (P27986 whole entry partner, canonical isoform): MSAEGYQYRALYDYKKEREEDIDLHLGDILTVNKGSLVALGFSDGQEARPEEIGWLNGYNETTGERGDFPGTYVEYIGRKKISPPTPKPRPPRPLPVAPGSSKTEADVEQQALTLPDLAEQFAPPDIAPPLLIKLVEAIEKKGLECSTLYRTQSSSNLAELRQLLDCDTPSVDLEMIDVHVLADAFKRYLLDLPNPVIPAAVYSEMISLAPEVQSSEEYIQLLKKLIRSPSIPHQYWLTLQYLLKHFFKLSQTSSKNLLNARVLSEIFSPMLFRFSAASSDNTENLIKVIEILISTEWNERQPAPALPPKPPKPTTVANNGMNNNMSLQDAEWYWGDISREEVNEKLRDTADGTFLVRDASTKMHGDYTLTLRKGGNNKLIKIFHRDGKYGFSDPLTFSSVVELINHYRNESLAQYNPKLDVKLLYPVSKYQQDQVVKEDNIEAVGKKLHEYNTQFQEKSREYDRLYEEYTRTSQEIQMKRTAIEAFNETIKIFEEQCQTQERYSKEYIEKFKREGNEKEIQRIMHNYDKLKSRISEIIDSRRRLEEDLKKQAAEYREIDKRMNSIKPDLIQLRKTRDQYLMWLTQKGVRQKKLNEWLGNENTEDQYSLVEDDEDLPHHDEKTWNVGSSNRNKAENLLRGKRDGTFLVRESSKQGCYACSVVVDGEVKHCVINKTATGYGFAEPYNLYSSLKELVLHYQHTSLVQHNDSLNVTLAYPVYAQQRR
# ASSAY_SUMMARY: HTRF PI3K biochemical assay, delta isoform
# CONDITION_PARAMETERS: 0.3 nM enzyme, 100 uM ATP, 50 uM PIP2; form screened (neutral or TFA salt)
So basically: is IC50 under 30 nM? Then 1. Not under? Then -1.

# input Say whether its IC50 is strictly beneath 30 nM. Entry: CCn1c(-c2cnc(C)nc2)nc2c(-c3ccc4c(c3)C3(CCCN3S(=O)(=O)C(F)(F)F)C(=O)N4)ncnc21 (single isomer, unassigned) [Compound 3-21]
# output -1

# input Is IC50 of CCn1c(-c2cnc(C)nc2)nc2c(-c3ccc4oc(=O)n(C(C)c5ccccc5)c4c3)ncnc21 (single isomer, unassigned) [Compound 5-1] strictly below 30 nM?
# output 1

# input Strictly below 30 nM in IC50? CCn1c(-c2cnc(C)nc2)nc2c(-c3ccc4c(c3)C(C)(CC3CC3)C(=O)N4C)ncnc21 (single isomer, unassigned) [Compound 1-10]
# output -1

# input Does the reported IC50 of CCn1c(-c2cnc(C)nc2)nc2c(-c3ccc4c(c3)C(C)(N[C@@H](C)C3CC3)C(=O)N4)ncnc21 (single isomer, unassigned) [Compound 2-13] stay below 30 nM?
# output -1

# input Could you please tell me whether IC50 recorded for CCn1c(-c2cnc(C)nc2)nc2c(-c3ccc4c(c3)C3(CCCN3S(C)(=O)=O)C(=O)N4)ncnc21 (single isomer, unassigned) [Compound 3-19] is less than 30 nM?
# output 1

# input is_below(IC50, 30 nM) for CCn1c(-c2cnc(C)nc2)nc2c(-c3ccc4c(c3)C(C)(OCC3CC3)C(=O)N4)ncnc21 (single isomer, unassigned) [Compound 2-58] ?
# output 1
